# STUDY SYSTEM: T1, canine OX40L, full length membrane form, expressed on HEK293 cells (canine)
# T1 chain: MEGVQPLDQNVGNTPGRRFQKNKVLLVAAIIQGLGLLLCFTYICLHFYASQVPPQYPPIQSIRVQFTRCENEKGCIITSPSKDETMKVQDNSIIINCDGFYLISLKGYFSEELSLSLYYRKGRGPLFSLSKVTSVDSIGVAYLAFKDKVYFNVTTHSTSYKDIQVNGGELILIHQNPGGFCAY
# RUN DESCRIPTION: cell-based or functional assay
EXPERIMENTAL ENDPOINT: % Signal Inhibition Average (%)
Express the result in % but write the number alone.

Study these solved cases before continuing.
PMX095 (antibody, V domains shown) VH: AVQLVESGGDLVRPGGSLRLSCVASGFTFSSYHMNWVRQAPGKGLQWVAFINSGGSSTTYADVVRGRFTISRDYAKNTLFLQMNSLRAEDTAVYYCAIGSIWTHFDYWGQGTLVTVSS VL: SFVLTQLPSVSVTLRQTARITCGGDIIGSKNVYWYQQRLGQAPVLILYRDTNRPTGIPERFSGASSGNTATLTISGALAEDEADYYCQVWDNSNKAMFGGGTHLTVL; 50.3
PMX029 (antibody, V domains shown, also called PMX29) VH: EVQLVESGGDLVKPGGSLRLSCVASGFTFSSYHMNWVRQAPGKGLQWVAYINTGGSRTSYADAVKGRFTISRDNAKNTLYLQMNSLRAEDTAVYYCANNYWDNFDSWGQGTLVTVSS VL: SYELTQPPSVNVTLRETAHITCGGDSIGSKYVQWIQQNPGQAPVVIIYKDTNRPTGIPERFSGANSGNTATLTISGALAEDEADYYCQVGDSGTKASVFGGGTHLTVL; 69.4
PMX291 (antibody, V domains shown) VH: EVQLVESGGDLLKPGGSLRLSCVASGFPFRNYDMTWVRQAPGKGLQWVAAIHYDGSNTYYTDAVKGRFTISRDNARNTVFLQMNSLRAEDTAVYYCAKKFNNYRPFDYWGQGTLVTVSS VL: DIVMTQTPPSLSVSPRETPSISCKASQSLLRSDGNTYLEWYLQKPGQSPQLLIYLVSNRFTGVSDRFSGSGSGTDFTLRISRVEANDAGVYYCGQGTQLPWTFGAGTKVELK; 73.3

Task: Record request: % Signal Inhibition Average value, item PMX156 (antibody, V domains shown) VH: ELQLVESGGDLVKPAGSLRLSCVASGFTFSNFRMSWVRQAPGKGLQFVAGINSDGYSTQYRDDVKGRFTISRDNTEKTLYLQMNNLRVEDTAMYYCVKDQGSWGGNFDYWGQGTLVTVSS VL: SYGLTQPPSVNVTLRETAHITCGGDSIGSKYVQWIQQIPGQAPVVIIYKDRNRPTGIPERFSGANSGNTATLTISGALAEDEADYYCQVGDSGTSVFGGGTHLTVL
Output: 35.1

Task: Record request: % Signal Inhibition Average value, item PMX040 (antibody, V domains shown, also called PMX40) VH: EVQLVESGGDLVKPGGSLRLSCVASGFTFSNFEMYWVRQAPGKGLEWVARIYESGTTTYHAEGVKGRFTISKDNVKNMAYLQMNSLRAEDTAVYYCTSASSSSWRFDYWGQGTLVTVSS VL: SYVLTQLPSVSVTLRQTARITCGGDSIGRKNVCWFQQKLGQAPILIIYDDSSRPSGIPERFSGANSGNTATLTISGALAEDEADYYCQVWDSSTGIFGGGTHLTVL
Output: 77.1
